- Tested on: HT-29
- experimental protocol: NCI tumour cell line growth inhibition, 48 h
The source made the active and inactive calls. Rule as the data show it: active = GI50 up to about 1.1 µM and inactive = higher.
quantity kind: GI50

# example entries with known answers
The recorded GI50 for entry COc1ccc(-c2c3ccccc3c(-c3ccc(OCCBr)cc3)c3ccccc23)cc1 equals > 100 µM (inactive)

// GI50 lookup, compound = COc1ccc(/[N+]([O-])=C/c2ccccc2OC(=S)S)cc1 , result: 22.4 µM (inactive)

Field GI50 (entry CC1C2CC(CC23OCC(CCl)O3)C1(C)C (stereo unspecified) ) reads > 100 µM (inactive)

Kindly note the recorded GI50 for COc1cc(OC)c2nccc(NCCCN(C)C)c2c1[N+](=O)[O-] , which is 35 µM (inactive)

Record CC(C)C(CC(=O)OCC(CO)OC(=O)CC(C(C)C)C(C)C)C(C)C (stereo unspecified) , field GI50: 17.4 µM (inactive)

Further cases:
Entry CCCCCCCCCCCCc1ccsc1-c1ccc(-c2ccc(-c3sccc3CCCCCCCCCCCC)s2)s1 , GI50 reported as > 100 µM (inactive)

Reported GI50 ( CCOC(=O)C(NC(=O)c1ccccc1)(N1CCN(c2cc3c(cc2F)c(=O)c(C(=O)O)cn3CC)CC1)C(F)(F)F (stereo unspecified) ) = 29 µM (inactive)

GI50 recorded for this compound, C/C=C(/CBr)CCC(Br)C(C)(C)Cl.C/C=C(\CBr)CCC(Br)C(C)(C)Cl (stereo unspecified) , is > 10 µM (inactive)

Entry under test: N=C1C=CC(=C(c2ccc(N)cc2)c2ccc(N)cc2)C=C1 . Its GI50 was 3.77 µM (inactive)

Reported GI50 ( Cc1nc2c3c(ncn2n1)Oc1c(c(-c2ccccc2)nn1-c1ccccc1)C3c1ccc(Cl)cc1 (stereo unspecified) ) = > 100 µM (inactive)

* * *

Below: a set of entries, each annotated with reported GI50.
- System: KM12
- experimental protocol: NCI tumour cell line growth inhibition, 48 h
Activity calls are given as the source filed them. Cut-off read from the data, not from the text of the source: active = GI50 up to about 1.1 µM and inactive = higher.

Worked examples, 6 compounds total:
GET /values?item= COc1cc(/C=C2\C[C@H]3[C@@H]4CC=C5C=C(N6CCCC6)CC[C@]5(C)[C@H]4CC[C@]3(C)C2=O)cc(OC)c1OC &system= KM12 returns GI50: 1.91 µM (inactive)

Readout GI50 for CN(C)CCNC(=O)c1c2ccccc2cc2ccccc12 , test system KM12, was 42.8 µM (inactive)

Observed GI50, KM12, Oc1ccc(Nc2nc(Cl)c3nc[nH]c3n2)cc1 : > 100 µM (inactive)

GI50 value, target or system KM12, for CC1CN=C(Nc2ccc(S(N)(=O)=O)cc2)S1 (stereo not given) : > 100 µM (inactive)

Result for Nc1ccc(-c2nc3ccccc3s2)cc1C#Cc1ccccc1 , tested on KM12, GI50: 16.7 µM (inactive)

GET /values?item= COC(=O)[C@H]1C=C[C@H](OC2OC(COC(C)=O)C(OC(C)=O)C(OC(C)=O)C2OC(C)=O)n2c(=O)n(-c3ccccc3)c(=O)n21 (stereo not given in full) &system= KM12 returns GI50: 11 µM (inactive)

Continuing:
CNC(=O)c1nn[nH]c1O on KM12 gives GI50 = > 100 µM (inactive)

Query COc1ccc(Nc2c[nH]c(=O)[nH]c2=O)cc1 on KM12; GI50 returned: > 100 µM (inactive)

Result for CCOC(=O)c1c2cccccc2n2c(=O)cc(C)nc12 , tested on KM12, GI50: > 100 µM (inactive)

Record for COc1cc(C2c3cc4c(cc3[C@@H](Nc3ccc([N+](=O)[O-])cc3)C3COC(=O)[C@H]23)OCO4)cc(OC)c1O (stereo not given in full) under target or system KM12: GI50 reported as 2.56 µM (inactive)
